molecular target: μ opiate receptor (MOR) (Rattus norvegicus, UniProt P33535); construct: from tissue; host or cells: striatal tissue (membrane preparation); assay: MOR agonist activity, [35S]GTPγS binding assay using striatal membranes; type: biochemical; details: 1 μM compound, striatal membranes
Sequence (P33535 whole entry): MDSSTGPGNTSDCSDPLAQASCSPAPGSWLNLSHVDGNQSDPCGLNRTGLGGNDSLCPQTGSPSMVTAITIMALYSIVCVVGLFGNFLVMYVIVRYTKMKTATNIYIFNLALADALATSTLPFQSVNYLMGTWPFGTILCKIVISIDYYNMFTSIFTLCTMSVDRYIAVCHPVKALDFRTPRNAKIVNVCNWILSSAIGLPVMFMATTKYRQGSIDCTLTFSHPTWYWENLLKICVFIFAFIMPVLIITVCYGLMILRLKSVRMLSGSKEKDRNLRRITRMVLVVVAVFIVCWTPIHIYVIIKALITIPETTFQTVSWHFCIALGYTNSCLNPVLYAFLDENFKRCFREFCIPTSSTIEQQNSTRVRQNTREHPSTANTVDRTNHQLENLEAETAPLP
[35S]GTPγS binding to Gαo, FLNA-binding compound as agonist 1 μM overview
Quantity Measured: [35S]GTPγS binding to Gαo, FLNA-binding compound as agonist 1 μM (%)

Compound	Value Unit	Value Observed
CC1CCC(C(C)C)C(OCC(O)CN2CCCC2=O)C1 (stereo not shown)	%	158.8
CC1CCC(C(C)C)C(OCC(O)CN2CCCN(C)CC2)C1 (stereo not shown)	%	319.0
CC1CN(CC(O)COc2cccc(N(C)C)c2)CC(C)O1 (stereo not shown)	%	233.1
COc1ccc(OCC(O)CN2CCC(=O)CC2)cc1 (stereo not shown)	%	310.9
CN(C)c1cccc(OCC(O)CN2CCc3ccccc3C2)c1 (stereo not shown)	%	189.3
CC1CN(CC(O)COc2ccccc2)CC(C)O1 (stereo not shown)	%	138.7
CC1CCC(C(C)C)C(OCC(O)Cn2ccc3ccccc32)C1 (stereo not shown)	%	289.9
CC1CCC(C(C)C)C(OCC(O)CN2CCN(CCN3CCCCC3)CC2)C1 (stereo not shown)	%	297.0
OC(COc1ccc(Br)c(F)c1)CN1CCCCC1 (stereo not shown)	%	244.3
COc1ccc(OCC(O)CN2CCc3ccccc3C2)cc1 (stereo not shown)	%	118.2
